testMethodNotes: mitochondrial membrane potential change in A549 cells, profiling panel, cell-based, JC-1 fluorescence, basal, 24 h, 100 nL (AID 1138);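 also: A549 lung adenocarcinoma cells under basal conditions with no added stimulus; test concentration not given here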
testConditions: higher = more signal
Outcome: Y for z-score of at least 0.2; N for anything lower.

Assess whether reported z-score for `CC(C)CNC(=O)[C@@]1(c2ccc([N+](=O)[O-])cc2)CC(=O)N(C2CCCCC2)[C@@H]1c1ccc(CO)cc1` sits at 0.2 or higher.
Y

Check the entry `CO[C@H]1O[C@H](CO)[C@@H](OC(=O)c2ccc(Br)cc2)[C@@H]2OC(=O)[C@H](Cc3ccccc3)C/C=C/C[C@@H](Cc3ccccc3)C(=O)O[C@@H]12` : does z-score equal or exceed 0.2?
N

In plain terms: is recorded z-score at least 0.2 for `COC(=O)[C@@]1(Cc2ccccc2CN=[N+]=[N-])N=C(c2ccc(OCCCO)cc2)O[C@H]1c1ccccc1CN=[N+]=[N-]` ?
N

Is it the case that `COc1ccc(C#Cc2ccc3c(c2)[C@]2(C(=O)N3)[C@H](C(=O)N3CCCCCCC3)[C@H]3C(=O)O[C@H](c4ccccc4)[C@H](c4ccccc4)N3[C@@H]2c2ccc(O)cc2)cc1` has z-score reaching or exceeding 0.2?
N

Reported z-score reaches at least 0.2 for `COCCOC(=O)N1C(=O)[C@@]2(c3cc(C#CCNC(N)=O)ccc31)[C@H](c1ccc(OCCO)cc1)N1[C@H](c3ccccc3)[C@H](c3ccccc3)OC(=O)[C@H]1[C@@H]2C(N)=O` ?
N

Could you verify whether the entry `CN(C)CCCCCCNC(=O)[C@@H]1C[C@@H]2C(=O)N[C@@H](CCCCN)C(=O)N2[C@@H]1c1ccc(O)cc1` shows z-score of no less than 0.2?
N

Form field: z-score at least 0.2? Entry: `COC(=O)[C@@]1(Cc2ccc(F)cc2)[C@H]2c3cc(C(=O)N4CCCC4)n(CC4CC4)c3C[C@H]2CN1C(=O)c1ccccc1`
Y

Quick check: does C=CCC(OC(C)=O)[C@@H]1[C@@H](N(Cc2ccc(-c3ccccc3)cc2)C(=O)c2ccc(C)cc2)c2cc(OCCCO)ccc2N1C(=O)Cc1ccc2ccccc2c1 (stereo partly drawn) have z-score greater than or equal to 0.2?
Y

Is z-score for C=C(C)[C@@H]1CC=C(C(O)C2C=CC3C(=O)N(c4ccccc4)C(=O)C3N2Nc2ccc(C#N)cc2)CC1 (stereo partly drawn) at or above 0.2?
N

Form field: z-score at least 0.2? Entry: CCOC(=O)C1=CCC(c2ccco2)N(S(=O)(=O)c2ccc(C)cc2)C1 (stereo not drawn)
N

Item CS(=O)(=O)CCOC(=O)C1=CC(CCCO)=CC(C2CC2)N(Cc2cccc(OC(F)(F)F)c2)C=C1C(=O)OCCS(C)(=O)=O (stereo not drawn) with z-score of 0.2 or above?
Y

Would you say `O=C1O[C@H](c2ccccc2)[C@H](c2ccccc2)N2[C@H]1[C@@H](C(=O)N1CCCCCCC1)[C@]1(C(=O)Nc3ccc(C#CC4(O)CCCCCC4)cc31)[C@H]2c1ccccc1OCCO` shows z-score at minimum 0.2?
Y

Dear colleague, could you confirm whether `C=CCNC(=O)[C@H]1[C@@H]2C(=O)O[C@@H](c3ccccc3)[C@@H](c3ccccc3)N2[C@@H](c2ccc(OCCO)cc2)[C@]12C(=O)N(C(=O)OCCOC)c1ccc(C#Cc3ccc(OC)cc3)cc12` has z-score at or above 0.2?
N

Data credit: PubChem BioAssay
